GLP1R Internalization EC50 values by entry
# Assayed target: human GLP1-R (SNAP-GLP-1R expressed in HEK293 cells) (human) (UniProt P43220)
# Sequence (P43220 24-463): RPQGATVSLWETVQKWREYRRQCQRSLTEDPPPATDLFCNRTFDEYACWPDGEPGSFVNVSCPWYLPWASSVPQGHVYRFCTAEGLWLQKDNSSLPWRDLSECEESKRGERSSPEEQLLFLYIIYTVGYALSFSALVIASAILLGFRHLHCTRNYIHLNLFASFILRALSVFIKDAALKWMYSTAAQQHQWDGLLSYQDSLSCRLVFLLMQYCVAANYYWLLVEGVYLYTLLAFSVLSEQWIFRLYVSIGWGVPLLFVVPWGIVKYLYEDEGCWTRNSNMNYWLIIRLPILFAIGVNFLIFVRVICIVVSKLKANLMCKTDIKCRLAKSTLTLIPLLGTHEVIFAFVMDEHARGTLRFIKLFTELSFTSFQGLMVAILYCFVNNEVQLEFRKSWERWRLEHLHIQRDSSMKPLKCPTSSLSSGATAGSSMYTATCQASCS
# Protocol description: cell-based or functional assay
Readout label: GLP1R Internalization EC50

binder="YXQGTFTSDFSXXLDKKAQXAFIEYLLEGGPSSGAPPPGGSX (synthetic construct; SITE 2: note = 2-Aminoisobutyric Acid; SITE 12: note = L-ornithine; SITE 13: note = alpha-methyl-leucine; SITE 17: note = Lysine is chemically modified through conjugation of the epsilon-amino group of the Lysine side chain with (2-[2-(2-Amino-ethoxy)-ethoxy]-acetyl)-(gamma-Glu)) [Example 66]" readout_label="GLP1R Internalization EC50" measured="42.1 nM"
binder="YXQGTFTSDFSXXLDKKAQXAFIEYLLAGGPSSGEPPPSGS (synthetic construct; SITE 2: note = 2-Aminoisobutyric Acid; SITE 12: note = L-ornithine; SITE 13: note = alpha-methyl-leucine; SITE 17: note = Lysine is chemically modified through conjugation of the epsilon-amino group of the Lysine side chain with (2-[2-(2-Amino-ethoxy)-ethoxy]-acetyl)-(gamma-Glu)) [Example 94]" readout_label="GLP1R Internalization EC50" measured="37.1 nM"
binder="YXQGTFTSDFSXXLDKKAQXAFIEYLLEXGPSSGAPPPSGS (synthetic construct; SITE 2: note = 2-Aminoisobutyric Acid; SITE 12: note = L-ornithine; SITE 13: note = alpha-methyl-leucine; SITE 17: note = Lysine is chemically modified through conjugation of the epsilon-amino group of the Lysine side chain with (2-[2-(2-Amino-ethoxy)-ethoxy]-acetyl)2-(gamma-Glu)) [Example 75]" readout_label="GLP1R Internalization EC50" measured="61.8 nM"
binder="YXQGTFTSDFSKXLDKKAQXAFIEYLLAGGPSSGEPPPSEGX (synthetic construct; SITE 2: note = 2-Aminoisobutyric Acid; SITE 13: note = alpha-methyl-leucine; SITE 17: note = Lysine is chemically modified through conjugation of the epsilon-amino group of the Lysine side chain with (2-[2-(2-Amino-ethoxy)-ethoxy]-acetyl)-(gamma-Glu)-CO-(CH2) 18-CO2H; SITE 20: n) [Example 32]" readout_label="GLP1R Internalization EC50" measured="86.1 nM"
binder="YXQGTFTSDFSKXLDKKAQXAFIEYLLAGGPSSGEPPPSSE (synthetic construct; SITE 2: note = 2-Aminoisobutyric Acid; SITE 13: note = alpha-methyl-leucine; SITE 17: note = Lysine is chemically modified through conjugation of the epsilon-amino group of the Lysine side chain with (2-[2-(2-Amino-ethoxy)-ethoxy]-acetyl)2-(gamma-Glu)-CO-(CH2 )18-CO2H; SITE 20:) [Example 5]" readout_label="GLP1R Internalization EC50" measured="53.4 nM"
binder="YXQGTFTSDFSKXLDKKAQXAFIEYLLAGGPSSGEPPPSGS (synthetic construct; SITE 2: note = 2-Aminoisobutyric Acid; SITE 13: note = alpha-methyl-leucine; SITE 17: note = Lysine is chemically modified through conjugation of the epsilon-amino group of the Lysine side chain with (2-[2-(2-Amino-ethoxy)-ethoxy]-acetyl)-(gamma-Glu)-CO-(CH2) 18-CO2H; SITE 20: n) [Example 8]" readout_label="GLP1R Internalization EC50" measured="63.2 nM"
binder="YXQGTFTSDFSRXLDKKAQXAFIEYLLEXGPSSGAPPPSGS (synthetic construct; SITE 2: note = 2-Aminoisobutyric Acid; SITE 13: note = alpha-methyl-leucine; SITE 17: note = Lysine is chemically modified through conjugation of the epsilon-amino group of the Lysine side chain with (2-[2-(2-Amino-ethoxy)-ethoxy]-acetyl)2-(gamma-Glu)-CO-(CH2 )16-CO2H; SITE 20:) [Example 80]" readout_label="GLP1R Internalization EC50" measured="35.8 nM"
binder="YXQGTFTSDFSKXLDKKAQXAFIEYLLAGGPSSGAPPPSGE (synthetic construct; SITE 2: note = 2-Aminoisobutyric Acid; SITE 13: note = alpha-methyl-leucine; SITE 17: note = Lysine is chemically modified through conjugation of the epsilon-amino group of the Lysine side chain with (2-[2-(2-Amino-ethoxy)-ethoxy]-acetyl)-(gamma-Glu)-CO-(CH2) 18-CO2H; SITE 20: n) [Example 11]" readout_label="GLP1R Internalization EC50" measured="75.1 nM"
binder="YXQGTFTSDFSKXLDKKAQXAFIEYLLAGGPSSGEPPPSGEX (not fully specified; synthetic construct; SITE 2: note = 2-Aminoisobutyric Acid; SITE 13: note = alpha-methyl-leucine; SITE 17: note = Lysine is chemically modified through conjugation of the epsilon-amino group of the Lysine side chain with (2-[2-(2-Amino-ethoxy)-ethoxy]-acetyl)-(gamma-Glu)-CO-(CH2) 18-CO2H; SITE 20: n) [Example 33]" readout_label="GLP1R Internalization EC50" measured="106 nM"
binder="YXQGTFTSDXSKXLDKKAQXAFIEYLLAGGPSSGEPPPSGE (synthetic construct; SITE 2: note = 2-Aminoisobutyric Acid; SITE 10: note = 3-(4-Pyridyl)-L-alanine; SITE 13: note = alpha-methyl-leucine; SITE 17: note = Lysine is chemically modified through conjugation of the epsilon-amino group of the Lysine side chain with (2-[2-(2-Amino-ethoxy)-ethoxy]-acetyl)) [Example 28]" readout_label="GLP1R Internalization EC50" measured="81.8 nM"
binder="YXQGTFTSDFSKXLDKKAQXAFIEYLLAGGPSSGEPPPSGE (synthetic construct; SITE 2: note = 2-Aminoisobutyric Acid; SITE 13: note = alpha-methyl-leucine; SITE 17: note = Lysine is chemically modified through conjugation of the epsilon-amino group of the Lysine side chain with (2-[2-(2-Amino-ethoxy)-ethoxy]-acetyl)-(gamma-Glu)-CO-(CH2) 16-CO2H; SITE 20: n) [Example 23]" readout_label="GLP1R Internalization EC50" measured="51.5 nM"
binder="YXQGTFTSDFSXXLDKKAQXAFIEYLLAGGPSSGAPPPEGS (synthetic construct; SITE 2: note = 2-Aminoisobutyric Acid; SITE 12: note = L-ornithine; SITE 13: note = alpha-methyl-leucine; SITE 17: note = Lysine is chemically modified through conjugation of the epsilon-amino group of the Lysine side chain with (2-[2-(2-Amino-ethoxy)-ethoxy]-acetyl)-(gamma-Glu)) [Example 93]" readout_label="GLP1R Internalization EC50" measured="30.4 nM"
